B1: Membrane-associated guanylate kinase, WW and PDZ domain-containing protein 2, residues 601 to 682; numbered along this chain, Q86UL8 (parent)
chain: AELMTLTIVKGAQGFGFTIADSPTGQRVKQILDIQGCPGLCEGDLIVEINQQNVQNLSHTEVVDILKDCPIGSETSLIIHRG

variants of: B1; assay: abundance fitness (aPCA) (normalised: wild type 0, dead -1); higher = more abundant; growth selection in yeast, the domain comes from the species named; details: Homo sapiens
Mark Criterion met for reported abundance fitness of -0.04 or greater; mark Criterion not met for anything smaller.

RESIDUE CHANGE: V47K
LABEL CLASS: Criterion not met
--
RESIDUE CHANGE: F17S
LABEL CLASS: Criterion not met
--
RESIDUE CHANGE: T24D
LABEL CLASS: Criterion met
--
RESIDUE CHANGE: I79Q
LABEL CLASS: Criterion not met
--
RESIDUE CHANGE: K67W
LABEL CLASS: Criterion not met
--
RESIDUE CHANGE: C69N
LABEL CLASS: Criterion not met
--
RESIDUE CHANGE: R27V
LABEL CLASS: Criterion met
--
RESIDUE CHANGE: D21N
LABEL CLASS: Criterion not met
--
RESIDUE CHANGE: Q30Y
LABEL CLASS: Criterion not met
--
RESIDUE CHANGE: E48Y
LABEL CLASS: Criterion met
--
RESIDUE CHANGE: Q51C
LABEL CLASS: Criterion not met
--
RESIDUE CHANGE: L45R
LABEL CLASS: Criterion not met
--
RESIDUE CHANGE: I71C
LABEL CLASS: Criterion not met
--
RESIDUE CHANGE: N53I
LABEL CLASS: Criterion not met
--
RESIDUE CHANGE: L32N
LABEL CLASS: Criterion not met
--
RESIDUE CHANGE: T24Y
LABEL CLASS: Criterion met
--
RESIDUE CHANGE: I34L
LABEL CLASS: Criterion met
--
RESIDUE CHANGE: H80W
LABEL CLASS: Criterion not met
--
RESIDUE CHANGE: L66S
LABEL CLASS: Criterion not met
--
RESIDUE CHANGE: Q35S
LABEL CLASS: Criterion met
--
RESIDUE CHANGE: V47E
LABEL CLASS: Criterion met
--
RESIDUE CHANGE: G72F
LABEL CLASS: Criterion not met
